Target: T1, cynomolgus PVRIG on cells (cynomolgus, UniProt A0A2K5WVV8 41-322)
T1 construct: whole, on cells; also called cPVRIG; expi cPVRIG cells
T1 sequence: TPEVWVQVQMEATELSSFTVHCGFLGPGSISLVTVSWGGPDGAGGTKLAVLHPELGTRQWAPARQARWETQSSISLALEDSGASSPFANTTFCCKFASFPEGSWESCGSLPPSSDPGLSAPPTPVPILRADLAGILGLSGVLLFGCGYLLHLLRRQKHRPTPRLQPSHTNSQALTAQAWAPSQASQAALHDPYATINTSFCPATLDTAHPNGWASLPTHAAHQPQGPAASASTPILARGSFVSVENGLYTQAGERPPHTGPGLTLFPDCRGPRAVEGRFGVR
Test: FACS, expi cPVRIG over expi parental cells, 3.3ug/ml
Measurement Name: gMFIr Expi cyno OE/par
Output: the number by itself.

Worked examples follow.
CHA.7.528 (antibody, V domains shown) VH: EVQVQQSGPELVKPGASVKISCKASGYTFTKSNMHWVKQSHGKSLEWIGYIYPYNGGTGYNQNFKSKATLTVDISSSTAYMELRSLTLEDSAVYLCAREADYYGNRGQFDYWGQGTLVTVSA VL: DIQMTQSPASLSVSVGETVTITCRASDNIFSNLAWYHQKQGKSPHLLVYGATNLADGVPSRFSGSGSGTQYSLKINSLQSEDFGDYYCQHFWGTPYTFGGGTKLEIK	12.2
CHA.7.545 (antibody, V domains shown) VH: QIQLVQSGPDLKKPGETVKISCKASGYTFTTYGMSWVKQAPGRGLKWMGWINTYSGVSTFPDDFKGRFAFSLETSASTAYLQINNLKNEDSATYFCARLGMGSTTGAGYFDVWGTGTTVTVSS VL: DIVLTQSPAIMSASPGEKVTMTCSASSSVSSWYLHWYQQKSGASPKLWIYGTSNLASGVPARFSGSGSGTSYSLTISSVEAEDAATYYCQQYRSDPYTFGSGTKLEIK	0.91

Now, please, on to the next binder.
gMFIr Expi cyno OE/par for CHA.7.506 (antibody, V domains shown) VH: QVQLQQSGAELTRPGASVNLSCKASGYTFTSYWMQWVKQRPGQGLEWIGAIYPGDGDTRFNQKFKGKATLTADESSSTAYMQLSSLASEDSAVYYCATYYRYDDYWGQGTTLTVSS VL: QIVLTQSPAIMSASPGEKVTMTCSASSSVSYMHWYQQKSGTSPKRWIYDTSKLASGVPTRFSGSGSGTSYSLTISSMEAEDAATYYCQQWSSNPYTFGGGTKLEIK is 0.77
